Source listed as a collection of fitness landscapes (doi:10.1126/science.1257360).

B1: PhoQ; a variant is named by its letters at X, in order, P23837 (parent)
chain: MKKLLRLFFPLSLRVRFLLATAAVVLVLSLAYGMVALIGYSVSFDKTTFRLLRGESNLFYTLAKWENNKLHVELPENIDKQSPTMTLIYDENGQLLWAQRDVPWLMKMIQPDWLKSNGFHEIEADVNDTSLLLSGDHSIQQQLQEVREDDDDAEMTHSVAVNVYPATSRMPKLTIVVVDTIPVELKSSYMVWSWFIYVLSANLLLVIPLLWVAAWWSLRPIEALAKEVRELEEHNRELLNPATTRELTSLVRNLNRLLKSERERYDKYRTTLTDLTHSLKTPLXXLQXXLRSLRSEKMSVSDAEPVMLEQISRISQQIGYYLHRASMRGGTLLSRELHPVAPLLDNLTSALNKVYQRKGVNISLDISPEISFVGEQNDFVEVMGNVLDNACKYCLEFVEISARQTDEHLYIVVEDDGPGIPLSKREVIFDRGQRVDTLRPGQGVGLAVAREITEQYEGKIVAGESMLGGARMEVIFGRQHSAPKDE

Variants of: B1
experiment_summary: enrichment ratio after two sorts for PhoP signalling (ratio (wild type AVST 3.29)); higher = more functional
measurement_context: with PhoP (E. coli)
Over roughly 140,000 sequences, “enrichment ratio after two sorts for PhoP signalling” has its median near 0; the highest 2% begin near 11. Many of the other results were omitted from the sample, so the highest values are more common in it than they were.
assay_readout: enrichment ratio

• KSSC = ≤ 0.25
• KSTC = ≤ 0.25
• GVIH = ≤ 0.25
• KAWH = ≤ 0.25
• WFGI = ≤ 0.25
• MMTC = ≤ 0.25

Look at each variant and report its enrichment ratio.
1. AICG
2. HKLL
3. ATPI
4. KDWW
5. AVPN

Output:
1: 8.42; 2: 1.86; 3: 8.1; 4: ≤ 0.25; 5: ≤ 0.25
